biological target: SGK3 (human) (UniProt Q96BR1); test: radiometric filter-binding kinase assay, Kinase HotSpot; details: compound 0.5 µM; ATP 10 µM
Sequence (Q96BR1 whole entry, looked up): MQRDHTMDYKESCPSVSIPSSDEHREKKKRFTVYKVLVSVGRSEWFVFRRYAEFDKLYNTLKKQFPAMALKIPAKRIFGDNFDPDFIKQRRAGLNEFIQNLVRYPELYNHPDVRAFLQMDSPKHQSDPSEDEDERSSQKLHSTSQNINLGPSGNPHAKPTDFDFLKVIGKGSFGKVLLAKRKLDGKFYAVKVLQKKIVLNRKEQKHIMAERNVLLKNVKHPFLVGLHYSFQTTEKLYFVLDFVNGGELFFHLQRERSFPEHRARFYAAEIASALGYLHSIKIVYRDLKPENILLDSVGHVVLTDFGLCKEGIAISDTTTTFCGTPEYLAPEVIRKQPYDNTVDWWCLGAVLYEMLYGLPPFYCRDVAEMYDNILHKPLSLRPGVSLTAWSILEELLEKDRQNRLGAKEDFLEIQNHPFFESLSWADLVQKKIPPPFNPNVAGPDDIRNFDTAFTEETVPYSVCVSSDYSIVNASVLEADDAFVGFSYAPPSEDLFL
Give measured residual activity for each item. Keep answers brief.
Give bare numbers, in %.

CC(C)n1cnc2c(Nc3cccc(Cl)c3)nc(NCCO)nc21; 97.1
Nc1nc(Nc2ccc(S(N)(=O)=O)cc2)nn1C(=S)Nc1c(F)cccc1F; 98.4
CS(=O)c1ccc(-c2nc(-c3ccc(F)cc3)c(-c3ccncc3)[nH]2)cc1 (stereo not given); 101
CCN1/C(=C/C(C)=O)Sc2ccc(OC)cc21; 93.4
O=C1Cc2c([nH]c3ccc([N+](=O)[O-])cc23)-c2ccccc2N1; 102

Fill in residual activity for each of the 2 compounds listed.
1. COc1cc2ncnc(Nc3ccc(F)c(Cl)c3)c2cc1OCCCN1CCOCC1
2. O=c1cc(N2CCNCC2)oc2c(-c3ccccc3)cccc12

[98.3, 111]

Below is a list of compounds. For each, state its recorded residual activity.
1. C#Cc1cccc(Nc2ncnc3cc(OCCOC)c(OCCOC)cc23)c1
2. Clc1ccc(Nc2nnc(Cc3ccncc3)c3ccccc23)cc1
3. Nc1n[nH]c2nnc(-c3c(-c4ccccc4)nn4ccccc34)cc12

1. 100
2. 99.2
3. 90.2
